- Assay name: TOX21_p53_BLA_p3_viability: Viability Assessment in the Tox21 HCT-116 p53 Agonism Beta-lactamase Assay, Phase 3 (AID 2283593);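 further: cells exposed to compound for 16 h before reading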
- Source text: TOX21_p53_BLA_p3 is a cell-based, single-readout assay that uses HCT116, a human intestinal cell line, […] in a 1536-well plate.TOX21_p53_BLA_p3_viability is an assay readout measuring cellular ATP content and detected with CellTiter-Glo Luciferase-coupled ATP quantitation.TOX21_p53_BLA_p3_viability used a type of viability reporter where loss-of-signal activity can be used to understand changes in the cell viability. […]
Results filed as inconclusive are left out. Active and inactive are the calls of the source. How the source made its calls: active means hit-call score of the fitted dose curve at least 0.9, where 1 is the maximum; inconclusive means response in the unintended direction; inactive means score below 0.9.
Pick from True (active), False (inactive) when you respond.

// known answers, use as guide
{"Compound": "CC(C)=CCCC(C)C=O (centres undefined)", "Category label": "False"}
{"Compound": "O=[N+]([O-])C1(Br)COCOC1", "Category label": "False"}
{"Compound": "O=S(=O)(O)c1ccc2cc(O)c(S(=O)(=O)O)cc2c1", "Category label": "False"}
{"Compound": "CC(C)=CCC[C@H](C)CCO", "Category label": "False"}
{"Compound": "Cc1cccc(C(=O)O)c1", "Category label": "False"}
{"Compound": "[Cl][Nd]([Cl])[Cl]", "Category label": "False"}
{"Compound": "O=c1cc[nH]c(=S)[nH]1", "Category label": "False"}
{"Compound": "O=C1CCCCCN1SSN1CCCCCC1=O", "Category label": "False"}

Answer briefly: the call reported for [Cl][In]([Cl])[Cl] in this assay.
False

Answer briefly: the call reported for COc1cc(NC(=O)CC(C)=O)c(OC)cc1Cl in this assay.
False

Answer briefly: the call reported for Nc1cccc(C(F)(F)F)c1 in this assay.
False

Answer briefly: the call reported for CCCCCCCCCCCSCC(=O)O in this assay.
False

Answer briefly: the call reported for CC(C)(Oc1ccc(C2CC2(Cl)Cl)cc1)C(=O)O (centres undefined) in this assay.
False

Answer briefly: the call reported for C=CC(C)(C)C in this assay.
False

Answer briefly: the call reported for CCCCC/C=C\C/C=C\CCCCCCCC(=O)OC in this assay.
False

Answer briefly: the call reported for CC(=O)OCCC1CCCCC1 in this assay.
False

Answer briefly: the call reported for COc1c2ccoc2cc2oc(=O)ccc12 in this assay.
False

Answer briefly: the call reported for COC(=O)C1=C(C)NC(C)=C(C(=O)OCC(C)C)C1c1ccccc1[N+](=O)[O-] (centres undefined) in this assay.
False

Answer briefly: the call reported for C=C[C@](C)(O)CC[C@@H]1[C@@]2(C)CCCC(C)(C)[C@@H]2CC[C@@]1(C)O in this assay.
True

Answer briefly: the call reported for C1=Cc2ccccc2C1 in this assay.
False

Answer briefly: the call reported for CC(C)c1ccc2c(C(C)C)cc(C(C)C)c(S(=O)(=O)O)c2c1 in this assay.
False

Answer briefly: the call reported for O=C1OC(=O)c2cc(Oc3ccc4c(c3)C(=O)OC4=O)ccc21 in this assay.
False

Answer briefly: the call reported for OCCNCc1ccccc1 in this assay.
False

Answer briefly: the call reported for CCC(CC)C(=O)O in this assay.
False

Answer briefly: the call reported for CCCCCCCC/C=C\CCCCCCCC(=O)O in this assay.
False

Answer briefly: the call reported for CNC(=S)N(C)C in this assay.
False

Answer briefly: the call reported for COCc1c(C(C)C)nc(C(C)C)c(/C=C/[C@@H](O)C[C@@H](O)CC(=O)O)c1-c1ccc(F)cc1 in this assay.
False

Answer briefly: the call reported for O=C(O)c1ccccc1Nc1cccc(C(F)(F)F)c1 in this assay.
False

Answer briefly: the call reported for CC1=NC(C)OC1C (centres undefined) in this assay.
False
